These measurements were taken from ChEMBL document CHEMBL5661979.

- test.target: Serine/threonine-protein kinase Nek4 (Homo sapiens, UniProt P51957)
- Sequence (P51957 whole entry): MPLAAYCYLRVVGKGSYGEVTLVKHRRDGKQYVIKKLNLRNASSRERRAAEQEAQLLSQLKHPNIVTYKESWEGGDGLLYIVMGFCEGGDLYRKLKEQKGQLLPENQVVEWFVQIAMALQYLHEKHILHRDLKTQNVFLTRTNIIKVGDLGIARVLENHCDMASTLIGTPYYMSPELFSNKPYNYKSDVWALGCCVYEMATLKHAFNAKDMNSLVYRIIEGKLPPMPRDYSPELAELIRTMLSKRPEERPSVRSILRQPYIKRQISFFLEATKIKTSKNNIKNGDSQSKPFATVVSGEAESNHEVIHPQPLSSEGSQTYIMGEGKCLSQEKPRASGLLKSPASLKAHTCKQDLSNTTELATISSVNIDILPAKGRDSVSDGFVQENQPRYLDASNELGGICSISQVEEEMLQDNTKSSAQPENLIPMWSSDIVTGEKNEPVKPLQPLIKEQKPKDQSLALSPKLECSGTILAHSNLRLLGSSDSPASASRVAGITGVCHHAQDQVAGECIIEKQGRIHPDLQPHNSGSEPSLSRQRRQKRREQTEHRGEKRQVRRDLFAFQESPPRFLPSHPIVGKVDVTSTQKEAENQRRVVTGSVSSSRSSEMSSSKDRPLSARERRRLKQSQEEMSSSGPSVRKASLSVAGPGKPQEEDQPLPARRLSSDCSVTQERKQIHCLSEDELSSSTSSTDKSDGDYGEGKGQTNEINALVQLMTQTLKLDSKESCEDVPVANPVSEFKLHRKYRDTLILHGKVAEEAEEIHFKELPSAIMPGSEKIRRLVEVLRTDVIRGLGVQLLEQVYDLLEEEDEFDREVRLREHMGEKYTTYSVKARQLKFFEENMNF
- method.description: Inhibition of NEK4 in human HeLa cells lysate pre incubated for 15 mins followed by ATP acyl phosphate probe addition and measured after 10 mins by LC-MS/MS analysis
pIC50: −log10 of the molar value.
measure.name: pIC50

Qu. Please give the measured pIC50 for this compound: CCOc1cc(N2CCC(O)CC2)ccc1Nc1ncc2c(n1)N(C)c1ccccc1C(=O)N2C
Ans. < 4.30

----------
- test.target: Serine/threonine-protein kinase Chk1 (Homo sapiens)
- Sequence (O14757 whole entry): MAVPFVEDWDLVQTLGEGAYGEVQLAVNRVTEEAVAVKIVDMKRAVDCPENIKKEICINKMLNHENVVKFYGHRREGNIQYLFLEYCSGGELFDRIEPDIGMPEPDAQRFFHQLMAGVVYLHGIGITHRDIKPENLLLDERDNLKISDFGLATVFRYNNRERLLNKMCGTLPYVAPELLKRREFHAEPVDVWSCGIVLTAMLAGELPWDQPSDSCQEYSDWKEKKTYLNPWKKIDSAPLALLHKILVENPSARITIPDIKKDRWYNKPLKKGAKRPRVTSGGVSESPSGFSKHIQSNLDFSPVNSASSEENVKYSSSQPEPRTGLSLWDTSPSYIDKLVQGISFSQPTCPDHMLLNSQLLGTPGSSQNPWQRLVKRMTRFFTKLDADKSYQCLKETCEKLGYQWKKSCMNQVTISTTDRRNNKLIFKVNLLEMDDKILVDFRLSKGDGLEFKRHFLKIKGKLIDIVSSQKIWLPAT
- method.description: Inhibition of CHK1 inactive site in human HeLa cells lysate pre incubated for 15 mins followed by ATP acyl phosphate probe addition and measured after 10 mins by LC-MS/MS analysis
- Assay type: subcellular
measure.name: IC50

Qu. # get_value(readout='IC50', item= CCOc1cc(N2CCC(O)CC2)ccc1Nc1ncc2c(n1)N(C)c1ccccc1C(=O)N2C )
Ans. > 50 µM

----------
- method.description: Half life in Sprague-Dawley rat at 2 mg/kg, po measured up to 8 hrs by LC-MS/MS analysis
- Format: ADME, organism-based
- conditions.used: in vivo
measure.name: half-life (h)
Numbers only, in h.

Qu. Reported half-life, compound CCOc1cc(N2CCC(O)CC2)ccc1Nc1ncc2c(n1)N(C)c1ccccc1C(=O)N2C : ____
Ans. 3.4

----------
- test.target: Dual specificity mitogen-activated protein kinase kinase 4 (Homo sapiens, UniProt P45985)
- Sequence (P45985 whole entry): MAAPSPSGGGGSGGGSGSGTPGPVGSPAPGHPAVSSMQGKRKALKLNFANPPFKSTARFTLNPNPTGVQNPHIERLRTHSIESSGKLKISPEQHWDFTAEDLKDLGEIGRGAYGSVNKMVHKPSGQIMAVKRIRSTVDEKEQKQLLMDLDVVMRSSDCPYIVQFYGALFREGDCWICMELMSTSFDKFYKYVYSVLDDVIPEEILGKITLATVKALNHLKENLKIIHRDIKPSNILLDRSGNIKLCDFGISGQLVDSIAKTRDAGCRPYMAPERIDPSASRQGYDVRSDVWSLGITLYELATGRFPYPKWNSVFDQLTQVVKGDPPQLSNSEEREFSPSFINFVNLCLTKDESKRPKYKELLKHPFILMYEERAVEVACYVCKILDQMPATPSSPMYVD
- method.description: Inhibition of MAP2K4 in human HeLa cells lysate pre incubated for 15 mins followed by ADP acyl phosphate probe addition and measured after 10 mins by LC-MS/MS analysis
- Assay type: subcellular
pIC50: −log10 of the molar value.
measure.name: pIC50

Qu. // returns reported pIC50 for input CCOc1cc(N2CCC(O)CC2)ccc1Nc1ncc2c(n1)N(C)c1ccccc1C(=O)N2C
Ans. < 4.30

----------
- test.target: Serine/threonine-protein kinase 10 (Homo sapiens)
- Sequence (O94804 whole entry): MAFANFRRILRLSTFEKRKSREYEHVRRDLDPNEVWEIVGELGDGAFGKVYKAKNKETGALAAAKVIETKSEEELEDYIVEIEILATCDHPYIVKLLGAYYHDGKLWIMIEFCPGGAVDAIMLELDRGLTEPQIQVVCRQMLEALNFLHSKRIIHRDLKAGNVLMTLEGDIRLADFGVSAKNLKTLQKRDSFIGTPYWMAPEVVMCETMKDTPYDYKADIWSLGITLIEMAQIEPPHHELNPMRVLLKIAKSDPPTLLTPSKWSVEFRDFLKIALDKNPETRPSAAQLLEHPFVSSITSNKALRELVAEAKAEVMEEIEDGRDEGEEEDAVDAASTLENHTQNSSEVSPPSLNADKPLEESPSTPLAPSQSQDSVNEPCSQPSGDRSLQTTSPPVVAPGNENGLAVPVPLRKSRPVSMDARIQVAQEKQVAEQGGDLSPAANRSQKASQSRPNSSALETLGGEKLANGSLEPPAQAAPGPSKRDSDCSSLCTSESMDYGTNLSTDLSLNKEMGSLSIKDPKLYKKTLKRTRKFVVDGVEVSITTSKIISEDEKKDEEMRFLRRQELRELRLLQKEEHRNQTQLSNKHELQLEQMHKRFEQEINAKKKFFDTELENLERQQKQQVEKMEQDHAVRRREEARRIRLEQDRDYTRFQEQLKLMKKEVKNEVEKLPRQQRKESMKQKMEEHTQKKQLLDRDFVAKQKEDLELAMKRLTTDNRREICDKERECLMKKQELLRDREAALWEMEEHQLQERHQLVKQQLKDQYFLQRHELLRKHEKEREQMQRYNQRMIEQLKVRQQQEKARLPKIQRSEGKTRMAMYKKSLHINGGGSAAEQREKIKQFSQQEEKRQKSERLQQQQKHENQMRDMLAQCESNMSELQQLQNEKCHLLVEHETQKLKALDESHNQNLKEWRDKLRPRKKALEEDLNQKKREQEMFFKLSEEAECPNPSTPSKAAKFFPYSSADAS
- method.description: Inhibition of LOK in human HeLa cells lysate pre incubated for 15 mins followed by ADP acyl phosphate probe addition and measured after 10 mins by LC-MS/MS analysis
- Type: subcellular
pIC50: −log10 of the molar value.
measure.name: pIC50

Qu. Which measured pIC50 value corresponds to CCOc1cc(N2CCC(O)CC2)ccc1Nc1ncc2c(n1)N(C)c1ccccc1C(=O)N2C ?
Ans. < 4.30

----------
- test.target: Tyrosine-protein kinase CSK (Homo sapiens, UniProt P41240)
- Sequence (P41240 whole entry): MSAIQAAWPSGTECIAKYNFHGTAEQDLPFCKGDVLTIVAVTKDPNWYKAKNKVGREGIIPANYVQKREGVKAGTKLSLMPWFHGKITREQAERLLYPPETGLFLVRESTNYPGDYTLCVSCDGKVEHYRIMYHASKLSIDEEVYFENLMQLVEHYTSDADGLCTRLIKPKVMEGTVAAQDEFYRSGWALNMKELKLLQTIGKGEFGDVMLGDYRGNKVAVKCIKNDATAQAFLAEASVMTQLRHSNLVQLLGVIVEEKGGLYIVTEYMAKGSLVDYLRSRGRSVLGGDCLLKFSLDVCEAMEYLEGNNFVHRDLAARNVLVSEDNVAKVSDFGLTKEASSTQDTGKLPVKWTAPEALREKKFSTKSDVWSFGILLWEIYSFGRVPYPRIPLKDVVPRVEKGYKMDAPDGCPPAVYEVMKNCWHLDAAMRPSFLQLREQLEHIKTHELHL
- method.description: Inhibition of CSK in human HeLa cells lysate pre incubated for 15 mins followed by ADP acyl phosphate probe addition and measured after 10 mins by LC-MS/MS analysis
- Format: subcellular
pIC50: −log10 of the molar value.
measure.name: pIC50

Qu. Reported pIC50 for CCOc1cc(N2CCC(O)CC2)ccc1Nc1ncc2c(n1)N(C)c1ccccc1C(=O)N2C : what is it?
Ans. < 4.30

----------
- test.target: AMPK alpha1/alpha2 (Homo sapiens, UniProt P54646+Q13131)
- Sequence (P54646 whole entry): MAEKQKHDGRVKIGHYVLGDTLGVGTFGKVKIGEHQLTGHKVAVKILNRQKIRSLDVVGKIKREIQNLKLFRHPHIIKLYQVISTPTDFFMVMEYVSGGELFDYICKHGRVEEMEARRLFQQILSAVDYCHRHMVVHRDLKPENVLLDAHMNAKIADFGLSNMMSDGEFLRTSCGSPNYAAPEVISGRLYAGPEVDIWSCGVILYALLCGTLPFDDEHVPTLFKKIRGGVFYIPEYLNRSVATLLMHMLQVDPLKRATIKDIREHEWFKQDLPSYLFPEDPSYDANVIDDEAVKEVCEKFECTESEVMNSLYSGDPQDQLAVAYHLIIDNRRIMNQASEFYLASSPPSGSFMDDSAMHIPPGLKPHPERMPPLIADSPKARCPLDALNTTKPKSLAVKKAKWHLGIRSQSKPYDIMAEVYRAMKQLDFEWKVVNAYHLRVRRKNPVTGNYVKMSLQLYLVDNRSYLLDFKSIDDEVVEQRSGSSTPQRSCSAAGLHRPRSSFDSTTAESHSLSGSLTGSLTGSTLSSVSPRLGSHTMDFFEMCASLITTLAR
- Sequence (Q13131 whole entry): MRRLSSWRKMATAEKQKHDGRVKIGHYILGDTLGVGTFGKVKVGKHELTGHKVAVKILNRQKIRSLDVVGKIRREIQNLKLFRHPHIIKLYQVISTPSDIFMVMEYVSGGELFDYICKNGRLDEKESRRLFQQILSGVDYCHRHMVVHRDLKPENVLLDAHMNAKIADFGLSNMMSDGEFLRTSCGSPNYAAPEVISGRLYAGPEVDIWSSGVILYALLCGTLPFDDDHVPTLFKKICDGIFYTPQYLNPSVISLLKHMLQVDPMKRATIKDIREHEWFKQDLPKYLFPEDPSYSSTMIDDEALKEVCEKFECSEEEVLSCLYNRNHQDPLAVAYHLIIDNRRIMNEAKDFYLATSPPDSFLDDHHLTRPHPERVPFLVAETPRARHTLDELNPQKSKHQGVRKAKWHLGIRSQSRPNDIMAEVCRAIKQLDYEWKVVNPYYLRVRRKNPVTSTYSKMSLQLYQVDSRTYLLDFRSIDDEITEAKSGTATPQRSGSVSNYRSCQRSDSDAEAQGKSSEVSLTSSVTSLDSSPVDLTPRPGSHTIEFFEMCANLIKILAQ
- method.description: Inhibition of AMPKalpha1/2 in human HeLa cells lysate pre incubated for 15 mins followed by ADP acyl phosphate probe addition and measured after 10 mins by LC-MS/MS analysis
- Type: subcellular
measure.name: IC50

Qu. Give the measured IC50 of CCOc1cc(N2CCC(O)CC2)ccc1Nc1ncc2c(n1)N(C)c1ccccc1C(=O)N2C .
Ans. > 50 µM

----------
- test.target: Mitogen-activated protein kinase kinase kinase 2 (Homo sapiens)
- Sequence (Q9Y2U5 whole entry): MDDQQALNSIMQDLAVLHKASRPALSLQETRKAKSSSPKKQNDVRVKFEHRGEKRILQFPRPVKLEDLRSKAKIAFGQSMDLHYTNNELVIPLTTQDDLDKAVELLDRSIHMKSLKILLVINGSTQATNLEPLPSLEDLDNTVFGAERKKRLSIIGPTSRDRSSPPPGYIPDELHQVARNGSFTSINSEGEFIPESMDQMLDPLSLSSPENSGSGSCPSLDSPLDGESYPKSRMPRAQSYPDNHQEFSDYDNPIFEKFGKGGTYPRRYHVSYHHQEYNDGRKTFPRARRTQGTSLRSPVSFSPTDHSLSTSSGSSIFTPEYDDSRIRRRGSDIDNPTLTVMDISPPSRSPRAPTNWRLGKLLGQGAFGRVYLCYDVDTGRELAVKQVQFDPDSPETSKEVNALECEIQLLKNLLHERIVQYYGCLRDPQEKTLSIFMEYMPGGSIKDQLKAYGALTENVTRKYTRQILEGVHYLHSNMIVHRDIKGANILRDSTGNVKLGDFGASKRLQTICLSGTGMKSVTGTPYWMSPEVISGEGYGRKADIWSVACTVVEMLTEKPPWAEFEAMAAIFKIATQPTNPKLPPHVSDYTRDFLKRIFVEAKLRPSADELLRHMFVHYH
- method.description: Inhibition of MAP3K2 in human HeLa cells lysate pre incubated for 15 mins followed by ADP acyl phosphate probe addition and measured after 10 mins by LC-MS/MS analysis
pIC50: −log10 of the molar value.
measure.name: pIC50

Qu. Need pIC50 of CCOc1cc(N2CCC(O)CC2)ccc1Nc1ncc2c(n1)N(C)c1ccccc1C(=O)N2C , thanks.
Ans. < 4.30

----------
- method.description: Inhibition of HGK/MINK/TNIK in human HeLa cells lysate pre incubated for 15 mins followed by ADP acyl phosphate probe addition and measured after 10 mins by LC-MS/MS analysis
- Format: subcellular
pIC50: −log10 of the molar value.
measure.name: pIC50

Qu. Look at this molecule and give its reported pIC50. CCOc1cc(N2CCC(O)CC2)ccc1Nc1ncc2c(n1)N(C)c1ccccc1C(=O)N2C
Ans. < 4.30

----------
- test.target: 5'-AMP-activated protein kinase catalytic subunit alpha-2 (Homo sapiens, UniProt P54646)
- method.description: Inhibition of AMPKalpha2 in human HeLa cells lysate pre incubated for 15 mins followed by ADP acyl phosphate probe addition and measured after 10 mins by LC-MS/MS analysis
measure.name: IC50

Qu. Need IC50, item CCOc1cc(N2CCC(O)CC2)ccc1Nc1ncc2c(n1)N(C)c1ccccc1C(=O)N2C
Ans. > 50 µM

----------
- test.target: Eukaryotic elongation factor 2 kinase (Homo sapiens, UniProt O00418)
- method.description: Inhibition of EEF2K in human HeLa cells lysate pre incubated for 15 mins followed by ATP acyl phosphate probe addition and measured after 10 mins by LC-MS/MS analysis
pIC50: −log10 of the molar value.
measure.name: pIC50

Qu. GET /values?readout=pIC50&item= CCOc1cc(N2CCC(O)CC2)ccc1Nc1ncc2c(n1)N(C)c1ccccc1C(=O)N2C
Ans. < 4.30

----------
- test.target: Dual specificity mitogen-activated protein kinase kinase 6 (Homo sapiens, UniProt P52564)
- method.description: Inhibition of MAP2K6 in human HeLa cells lysate pre incubated for 15 mins followed by ATP acyl phosphate probe addition and measured after 10 mins by LC-MS/MS analysis
- Format: subcellular
pIC50: −log10 of the molar value.
measure.name: pIC50

Qu. Give the reported pIC50 for CCOc1cc(N2CCC(O)CC2)ccc1Nc1ncc2c(n1)N(C)c1ccccc1C(=O)N2C (system: Dual specificity mitogen-activated protein kinase kinase 6 (Homo sapiens, UniProt P52564)).
Ans. < 4.30

----------
- test.target: Calcium/calmodulin-dependent protein kinase type II subunit delta (Homo sapiens)
- method.description: Inhibition of CAMK2d in human HeLa cells lysate pre incubated for 15 mins followed by ADP acyl phosphate probe addition and measured after 10 mins by LC-MS/MS analysis
- Format: subcellular
measure.name: IC50

Qu. For the compound shown here, CCOc1cc(N2CCC(O)CC2)ccc1Nc1ncc2c(n1)N(C)c1ccccc1C(=O)N2C , give the reported IC50.
Ans. > 50 µM

----------
- test.target: Ribosomal protein S6 kinase alpha-3 (Homo sapiens, UniProt P51812)
- Sequence (P51812 whole entry, the tested form may be a part): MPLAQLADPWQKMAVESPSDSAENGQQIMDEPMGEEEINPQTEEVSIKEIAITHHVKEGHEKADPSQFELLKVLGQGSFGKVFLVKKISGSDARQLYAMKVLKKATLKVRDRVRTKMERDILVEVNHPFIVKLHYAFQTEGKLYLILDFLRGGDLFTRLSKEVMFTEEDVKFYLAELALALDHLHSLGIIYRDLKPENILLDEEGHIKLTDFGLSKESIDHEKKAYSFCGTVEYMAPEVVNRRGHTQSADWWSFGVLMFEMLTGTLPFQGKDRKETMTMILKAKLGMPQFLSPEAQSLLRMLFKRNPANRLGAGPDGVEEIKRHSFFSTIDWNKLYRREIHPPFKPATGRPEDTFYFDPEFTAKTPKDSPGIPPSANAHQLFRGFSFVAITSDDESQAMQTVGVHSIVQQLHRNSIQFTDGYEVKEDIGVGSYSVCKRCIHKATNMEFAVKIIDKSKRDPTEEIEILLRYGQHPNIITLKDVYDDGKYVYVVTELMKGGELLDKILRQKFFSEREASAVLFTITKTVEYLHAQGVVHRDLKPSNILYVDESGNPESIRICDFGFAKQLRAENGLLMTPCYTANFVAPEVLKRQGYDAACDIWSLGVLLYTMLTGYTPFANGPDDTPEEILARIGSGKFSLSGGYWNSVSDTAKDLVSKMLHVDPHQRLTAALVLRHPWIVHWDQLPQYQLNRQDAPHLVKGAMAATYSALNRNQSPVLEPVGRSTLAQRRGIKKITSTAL
- method.description: Inhibition of RSK2 domain 1 in human HeLa cells lysate pre incubated for 15 mins followed by ADP acyl phosphate probe addition and measured after 10 mins by LC-MS/MS analysis
- Assay type: subcellular
measure.name: IC50

Qu. Looking for the measured IC50 of CCOc1cc(N2CCC(O)CC2)ccc1Nc1ncc2c(n1)N(C)c1ccccc1C(=O)N2C , can you help?
Ans. > 50 µM

----------
- test.target: Phosphatidylinositol 5-phosphate 4-kinase type-2 alpha (Homo sapiens)
- Sequence (P48426 whole entry): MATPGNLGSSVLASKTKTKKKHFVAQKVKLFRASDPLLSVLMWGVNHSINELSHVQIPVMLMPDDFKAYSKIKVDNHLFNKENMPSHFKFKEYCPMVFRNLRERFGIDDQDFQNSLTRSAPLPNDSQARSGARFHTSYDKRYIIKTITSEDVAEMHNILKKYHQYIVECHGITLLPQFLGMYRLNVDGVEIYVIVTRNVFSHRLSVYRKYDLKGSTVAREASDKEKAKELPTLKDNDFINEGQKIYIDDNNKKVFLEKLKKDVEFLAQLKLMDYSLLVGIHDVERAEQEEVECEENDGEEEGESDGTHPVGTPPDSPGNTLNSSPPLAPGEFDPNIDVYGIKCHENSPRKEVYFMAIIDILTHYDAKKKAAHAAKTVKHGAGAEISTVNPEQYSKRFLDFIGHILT
- method.description: Inhibition of PIP5K2A LIP1 labeling site in human HeLa cells lysate pre incubated for 15 mins followed by ATP acyl phosphate probe addition and measured after 10 mins by LC-MS/MS analysis
- Type: subcellular
measure.name: IC50

Qu. So what does the record say about IC50 for CCOc1cc(N2CCC(O)CC2)ccc1Nc1ncc2c(n1)N(C)c1ccccc1C(=O)N2C ?
Ans. > 50 µM
